Cited source for all entries: PubChem BioAssay (NCATS)

Test: P-glycoprotein substrates identified in KB-3-1 adenocarcinoma cell line, qHTS therapeutic library screen (AID 1346986); also: nearly all actives have a fitted effect of over 60% in size
Details: KB-3-1 parental cells viability, CellTiter-Glo, 72 h; series mostly up to 44.5 µM
Records with an inconclusive call do not appear. Active and inactive are the calls of the source. Calls follow the shape of the dose curve; as a rule, active = well fitted inhibition curve with a large enough effect; inconclusive = small, poorly fitted or top-dose-only effect; inactive = no such curve, though single readings can be large or run the other way.
Answer with one of the outcomes True for active, False for inactive

Qu. Please share the test call associated with COc1c(Nc2ncc(Cl)c(N[C@H]3[C@H](C(N)=O)[C@@H]4C=C[C@@H]3C4)n2)ccc2c1CCC(N1CCOCC1)CC2 (some centres undefined) .
Ans. True

Qu. Please share the test call associated with Cc1cc(-c2nc(C(=O)Nc3cn(C4CCOCC4)nc3C(N)=O)co2)ccn1 .
Ans. True

Qu. Please share the test call associated with Cc1ccc([N+](=O)[O-])cc1S(=O)(=O)N(C)/N=C\c1cnc2ccc(Br)cn12 .
Ans. True

Qu. Please share the test call associated with COc1cc(N2CCN(C(C)=O)CC2)ccc1Nc1ncc(Cl)c(Nc2ccc(N3CCN(C(C)=O)CC3)cc2OC)n1 .
Ans. True

Qu. Please share the test call associated with C[C@]1(C(=O)Nc2ccc(F)nc2)CCCN1c1nc(Nc2cc(C3CC3)[nH]n2)c2cccn2n1 .
Ans. True

Qu. Please share the test call associated with CN1CCN(Cc2ccc(Nc3ncc(Cl)c(Nc4ccccc4S(=O)(=O)N(C)C)n3)cc2)CC1 .
Ans. True

Qu. Please share the test call associated with Oc1cc(CNC(=S)/C=C/c2cc(O)c(O)c(Br)c2)cc(O)c1O .
Ans. True

Qu. Please share the test call associated with Cc1ccc(NS(=O)(=O)c2cc3c(cc2NCCO)NC(=O)CC3)cc1C .
Ans. False

Qu. Please share the test call associated with Nc1ncnc2c1c(I)cn2C1OC(CO)C(O)C1O (centres undefined) .
Ans. True

Qu. Please share the test call associated with CN(C)CCNC(=O)c1cccn2c(=O)c3cc4ccccc4cc3nc12 .
Ans. True

---

Experiment: OV-SAHO Cancer Cell Toxicity qHTS against the NCATS CANVASS Library (AID 1347348); also: nearly all actives have a fitted effect of over 55% in size
Conditions: OV-SAHO viability, CellTiter-Glo luminescence, 72 h; series mostly up to 38.3 µM
Records with an inconclusive call do not appear. The source made the active and inactive calls. Calls come from the whole dose curve; as a rule, active = well fitted cell-killing curve with a large enough effect; inconclusive = small, poorly fitted or top-dose-only effect; inactive = flat fitted curve, though single readings scatter. Numbered stars: 1 amine (or outer) side, 2 acyl side, 3 side chain; on linkers, the order of the positions; unused ones are H or OH. Square brackets hold non-standard residues; d marks the D form. Peptide text beside a SMILES is read from it. X1 = CCCCCCCCCC(=O)[C@H](C(=O)[*:2])[C@@H]1CNC(=O)[C@@H](N[*:1])CS1
Answer with one of the outcomes Yes = active, No = inactive

# COMPOUND, DISCRETE LABEL
measured = [
    ("CC1=CC[C@@]2(C[C@@H]1O)[C@@H](C(=O)O)CC[C@H]2C(C)C", "No"),
    ("CC(C)=CCC[C@@H](C)[C@@H]1CC[C@@]2(C)C[C@H]3C(C)=CC(=O)[C@@H]3/C(C=O)=C\\C[C@H]12", "Yes"),
    ("C/C(=C\\[C@H](C)C(=O)CCCC1CC(=O)NC(=O)C1)[C@@H]1OC(=O)/C=C/CC/C=C/C[C@@H](O)[C@@H]1C", "Yes"),
    ("CO[C@@H]1C[C@@H](C[C@H]2CC[C@H](C)[C@H]([C@@H](C)C(=O)O)O2)O[C@]2(O[C@](C)([C@H]3CC[C@@](C)([C@@H]4O[C@@H]([C@H]5O[C@](C)(O)[C@H](C)C[C@@H]5C)C[C@@H]4C)O3)C[C@H]2C)[C@@H]1C", "Yes"),
]

Qu. Please share the test call associated with C=C(C)CC[C@H](Cc1c(O)cc(O)c2c1O[C@H](c1ccc(O)cc1O)CC2=O)C(=C)C .
Ans. No

Qu. Please share the test call associated with O=C(OC1Cc2c(O)cc(O)cc2OC1c1cc(O)c(O)c(O)c1)c1cc(O)c(O)c(O)c1 (stereo unspecified) .
Ans. No

Qu. Please share the test call associated with C=C[C@@]1(C)CC[C@@H]([C@H](C)C(=O)/C=C/C(C)C)O1 .
Ans. No

Qu. Please share the test call associated with CCCCCCCCCC(=O)[C@@H]1C(=O)N[C@@H](CC(C)C)C(=O)N[C@H](C)C(=O)N2CCC[C@H]2C(=O)N[C@@H](C(C)C)C(=O)N[C@H]2CS[C@H]1CNC2=O (cyclo(L[dA]PV[X1])) .
Ans. No

Qu. Please share the test call associated with C=C1[C@H]2CC[C@@]3(C=CC(=O)[C@@](C)(CCC(=O)Nc4c(O)ccc(C(=O)O)c4O)C3C2)[C@H]1O (stereo partly specified) .
Ans. No

---

Tested on: Zika virus NS2B-NS3 protease (linked construct)
Experiment: Primary screen NINDS Rhodamine qHTS for Zika virus inhibitors (AID 1347160); also: nearly all actives have a fitted effect of over 55% in size
Conditions: purified NS2B-NS3 protease, Rhodamine110 substrate fluorescence; series mostly up to 57.1 µM
Results filed as inconclusive are left out. Activity calls are given as the source filed them. Calls come from the whole dose curve; as a rule, active = well fitted inhibition curve with a large enough effect; inconclusive = small, poorly fitted or top-dose-only effect; inactive = no such curve, though single readings can be large or run the other way.
Answer with one of the outcomes active, inactive

Example results:
# COMPOUND, TEST TARGET, DISCRETE LABEL
measured = [
    ("COc1ccc2oc3c(OC)c(OC)c(OC)c(OC)c3c(=O)c2c1", "Zika virus NS2B-NS3 protease (linked construct)", "inactive"),
    ("CC(C)=CCC/C(C)=C/Cc1c(O)c(CC=C(C)C)c(O)c2c(=O)c3cc(O)ccc3oc12", "Zika virus NS2B-NS3 protease (linked construct)", "active"),
    ("C=C1C(=O)O[C@H]2[C@H]1CC/C(CO)=C\\CC[C@@]1(C)O[C@@H]21", "Zika virus NS2B-NS3 protease (linked construct)", "inactive"),
    ("C=C1C(=O)O[C@H]2C[C@H](C)[C@@H]3CC(=O)C(C)=C3[C@H](O)[C@H]12", "Zika virus NS2B-NS3 protease (linked construct)", "inactive"),
    ("C=C1C[C@@]23C=CC(=O)[C@@](C)(CCC(=O)Nc4c(O)ccc(C(=O)O)c4O)C2C[C@@H]1CC3 (some centres undefined)", "Zika virus NS2B-NS3 protease (linked construct)", "active"),
]

Qu. Please share the test call associated with C/C1=C/[C@@H](C)[C@H](O)C/C=C/CC/C=C/C(=O)O[C@@H]1[C@H](C)C(=O)/C=C/CC1CC(=O)NC(=O)C1 .
Ans. active

Qu. Please share the test call associated with C=C1CC[C@@H]2[C@](C)(CO)[C@H](O)CC[C@@]2(C)[C@@H]1C/C=C1/C(=O)OC[C@@H]1O .
Ans. inactive

---

Molecular target: Atrial natriuretic peptide receptor 1 (Homo sapiens)
Assay: Natriuretic polypeptide receptor (hNpr1) antagonism - Pilot CMLD screen (AID 1347052);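 also: HEK293 cells with hNpr1 stimulated by hNppA peptide at 0.1 nM; cGMP level read as GloSensor luciferase luminescence after agonist stimulation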
Settings: HEK293 hNpr1 GloSensor cGMP luminescence, ANP-stimulated; series mostly up to 9.22 µM
Source text: […] 7. […] GloSensor baseline pre-read luminescence measured using CCD-based camera (Viewlux). […] 10. […] GloSensor post-hNppA luminescence measured using CCD-based camera (Viewlux). […] 1. […] Cells counted with Invitrogen Countess (30,000,000 - 50,000,000 cells/flask). […]
Inconclusive results are not listed. Active and inactive are the calls of the source. The call rests on the fitted dose curve.
Answer with one of the outcomes 1 (yes) (active), 0 (no) (inactive)

Example results:
# COMPOUND, DISCRETE LABEL
records = [
    ("CC1(OC(=O)C2CCCC2)C(=O)C=C2C=C3CCCCN3C=C2C1=O (configuration not stated)", "0 (no)"),
    ("FC(F)(F)c1cc(NC(=S)Nc2ccc3ccccc3c2)cc(C(F)(F)F)c1", "0 (no)"),
    ("COc1ccc(N2C=C3C(=O)C(C)(OC(=O)C4CCCC4)C(=O)C=C3C=C2c2ccsc2)cc1 (configuration not stated)", "0 (no)"),
]

Qu. Please share the test call associated with CCCNC(=O)OC[C@H]1O[C@H](CCON=C2C[C@@H](O)[C@@H](O)[C@@H]3[C@H]4C(=O)N(CC)C(=O)[C@@H]4CC[C@H]23)C=C[C@H]1Oc1ccc(OC)cc1 .
Ans. 0 (no)

Qu. Please share the test call associated with C[C@H]1Cc2c(-c3ccccc3)nc3c(c2CO1)CN(S(=O)(=O)c1ccc(Cl)c2nonc12)CC3 .
Ans. 0 (no)

---

Experiment: HEK-293 Cancer Cell Toxicity qHTS against the NCATS CANVASS Library (AID 1347355); also: nearly all actives have a fitted effect of over 65% in size; also: potency is read from the fitted curve at half-maximal effect
Conditions: HEK-293 viability, CellTiter-Glo luminescence, 72 h; series mostly up to 46.1 µM
Inconclusive results are not listed. The source made the active and inactive calls. Calls come from the whole dose curve; as a rule, active = well fitted cell-killing curve with a large enough effect; inconclusive = small, poorly fitted or top-dose-only effect; inactive = flat fitted curve, though single readings scatter.
ENDPOINT LABEL: Potency

# count of solved cases: 6
# COMPOUND, OBSERVED MEASUREMENT
data = [
    ("C=C1C[C@@]23C=CC(=O)[C@@](C)(CCCC(C)C(=O)O)[C@@H]2C[C@@H]1CC3 (stereo partly drawn)", "inactive"),
    ("CC(=O)O[C@@H]1C=C2C(=O)OC[C@]2(O)[C@@]2(C)CCCC(C)(C)[C@H]12", "8.33 µM (active)"),
    ("COc1cc(/C=C/C(=O)O)ccc1O", "inactive"),
    ("O=Cc1ccc2n1C[C@@]1(C[C@H](O)[C@@H](CO)O1)OC2", "inactive"),
    ("C=CC(C)(C)C(=O)[C@@H](C)[C@@H]1CC[C@](C)(C=C)O1", "inactive"),
    ("C=C(C)CC[C@H](Cc1c(O)cc(O)c2c1O[C@H](c1ccc(O)cc1O)CC2=O)C(=C)C", "inactive"),
]

Dear colleague, could you send me Potency for each of the items below? Thanks.
1. CCCCCC[C@H](CCCCC[C@@H](O)C(N)=O)OC(=O)[C@@H]1CC=CN1C(=O)c1ccccc1O
2. CN1C(=O)[C@]23SS[C@@]1(C)C(=O)N2[C@H]1Nc2ccccc2[C@]1(c1c[nH]c2ccccc12)[C@@H]3O
3. O=C(O)[C@@]12COC3(O)C1CCN1CC[C@H]3[C@@H]1c1c2[nH]c2ccccc12

Ans.
inactive
0.743 µM (active)
inactive
